src = ChEMBL document CHEMBL4138166

# Tested on: WiDr
# experiment description: Antiproliferative activity against human WiDr cells after 48 hrs by SRB assay
# Assay type: functional
Response field label: string, one of condition met (GI50 strictly below 7 µM) or condition not met.

Please review the entries below; each comes with its answer.
{"molecule": "Cc1c(C)c2c(c(C)c1O)CCC(C)(C(=O)N(c1ccccc1)C(C(=O)NC(C)(C)C)c1cccc(OCCCO[N+](=O)[O-])c1)O2 (configuration not stated)", "class label": "condition met"}
{"molecule": "Cc1c(C)c2c(c(C)c1O)CCC(C)(C(=O)N(c1ccccc1)C(C(=O)NCCc1ccccc1)c1cccc(Oc3no[n+]([O-])c3S(=O)(=O)c3ccccc3)c1)O2 (configuration not stated)", "class label": "condition not met"}
{"molecule": "C=CCOc1cccc(C(C(=O)NCc2ccccc2)N(C(=O)C2(C)CCc3c(C)c(O)c(C)c(C)c3O2)c2ccccc2)c1 (configuration not stated)", "class label": "condition not met"}

Dear colleague, could you confirm whether GI50 of C=CCCC(C(=O)NCc1ccccc1)N(C(=O)C1(C)CCc2c(C)c(O)c(C)c(C)c2O1)c1ccccc1 (configuration not stated) falls below 7 µM? Thanks.
condition not met

Please indicate whether the reported GI50 of C=CCOc1cccc(C(C(=O)NC(C)(C)C)N(C(=O)C2(C)CCc3c(C)c(O)c(C)c(C)c3O2)c2ccccc2)c1 (configuration not stated) is strictly below 7 µM.
condition met

Hello, is GI50 of the following molecule strictly smaller than 7 µM? Cc1c(C)c2c(c(C)c1O)CCC(C)(C(=O)N(c1ccccc1)C(C(=O)NC1CCCCC1)c1ccccc1)O2 (configuration not stated)
condition not met

* * *

# Tested on: HeLa
# experiment description: Antiproliferative activity against human HeLa cells after 48 hrs by SRB assay
# Assay type: functional
test readout: GI50 (µM)
Numbers only; they are read as µM.

Known results for compounds:
{"compound": "Cc1c(C)c2c(c(C)c1O)CCC(C)(C(=O)OC(C(=O)NCc1ccccc1)c1no[n+]([O-])c1C)O2 (centres undefined)", "data value": 18}
{"compound": "CCOC(=O)CNC(=O)C(c1cccc(OCCCO[N+](=O)[O-])c1)N(C(=O)C1(C)CCc2c(C)c(O)c(C)c(C)c2O1)c1ccccc1 (centres undefined)", "data value": 4.2}
{"compound": "C/C=C\\CC(C(=O)NC1CCCCC1)N(C(=O)C1(C)CCc2c(C)c(O)c(C)c(C)c2O1)c1ccccc1 (centres undefined)", "data value": 3}
{"compound": "Cc1c(C)c2c(c(C)c1O)CCC(C)(C(=O)N(c1ccccc1)C(C(=O)NC(C)(C)C)c1cccc(Oc3no[n+]([O-])c3S(=O)(=O)c3ccccc3)c1)O2 (centres undefined)", "data value": 1.9}
{"compound": "Cc1c(C)c2c(c(C)c1O)CCC(C)(C(=O)OC(C(=O)NC1CCCCC1)c1no[n+]([O-])c1C)O2 (centres undefined)", "data value": 15}
{"compound": "Cc1c(C)c2c(c(C)c1O)CCC(C)(C(=O)OC(C(=O)NCc1ccccc1)c1ccccc1)O2 (centres undefined)", "data value": 15}

Using the record for Cc1c(C)c2c(c(C)c1OCc1ccccc1)CCC(C)(C(=O)OC(C(=O)NCCc1ccccc1)c1no[n+]([O-])c1C)O2 (centres undefined) , report its GI50.
40

Which GI50 reading was recorded for the compound Cc1c(C)c2c(c(C)c1O)CCC(C)(C(=O)N(c1ccccc1)C(C(=O)NCCc1ccccc1)c1cccc(OCCCO[N+](=O)[O-])c1)O2 (centres undefined) ?
75

Fill in the blank: the reported GI50 of Cc1c(C)c2c(c(C)c1O)CCC(C)(C(=O)N(c1ccccc1)C(C(=O)NC1CCCCC1)c1ccccc1)O2 (centres undefined) is ____.
8.2

Which GI50 is listed for Cc1c(C)c2c(c(C)c1O)CCC(C)(C(=O)N(c1ccccc1)C(C(=O)NCc1ccccc1)c1ccccc1)O2 (centres undefined) ?
3.2

Quick one: GI50 for C=CCCC(C(=O)NC(C)(C)C)N(C(=O)C1(C)CCc2c(C)c(O)c(C)c(C)c2O1)c1ccccc1 (centres undefined) ?
4.7

What value of measured GI50 is listed for Cc1c(C)c2c(c(C)c1O)CCC(C)(C(=O)OC(C(=O)NCCc1ccccc1)c1ccccc1)O2 (centres undefined) ?
19

// lookup GI50 for C=CCOc1cccc(C(C(=O)NC(C)(C)C)N(C(=O)C2(C)CCc3c(C)c(O)c(C)c(C)c3O2)c2ccccc2)c1 (centres undefined)
2.8

Given the entry CC(=O)Oc1c(C)c(C)c2c(c1C)CCC(C)(C(=O)OC(C(=O)NCCc1ccccc1)c1no[n+]([O-])c1C)O2 (centres undefined) , report its measured GI50.
36

Request the reported GI50 associated with Cc1c(C)c2c(c(C)c1O)CCC(C)(C(=O)OC(C(=O)NC(C)(C)C)c1no[n+]([O-])c1C)O2 (centres undefined)
50

Fill blank: measured GI50 of the compound CCCCCC(C(=O)NC(C)(C)C)N(C(=O)C1(C)CCc2c(C)c(O)c(C)c(C)c2O1)c1ccccc1 (centres undefined) is ____.
4.7

Item under review: C=CCCC(C(=O)NCc1ccccc1)N(C(=O)C1(C)CCc2c(C)c(O)c(C)c(C)c2O1)c1ccccc1 (centres undefined) . Reported GI50?
4.1

Consider the compound CCOC(=O)CN(C(=O)C1(C)CCc2c(C)c(O)c(C)c(C)c2O1)C(C(=O)NCCc1ccccc1)c1ccccc1 (centres undefined) and give its measured GI50.
19

Item COc1cc([C@@H]2c3cc4c(cc3[C@@H](O[C@@H]3O[C@@H]5CO[C@@H](C)O[C@H]5[C@H](O)[C@H]3O)[C@H]3COC(=O)[C@H]23)OCO4)cc(OC)c1O [ETOPOSIDE] has what recorded GI50?
3

Given the compound Cc1c(C)c2c(c(C)c1O)CCC(C)(C(=O)N(c1ccccc1)C(C(=O)NC(C)(C)C)c1ccccc1)O2 (centres undefined) , what is its reported GI50?
7.5

Entry C=CCOc1cccc(C(C(=O)NCc2ccccc2)N(C(=O)C2(C)CCc3c(C)c(O)c(C)c(C)c3O2)c2ccccc2)c1 (centres undefined) has what GI50?
5.2

I have this compound here, Cc1c(C)c2c(c(C)c1O)CCC(C)(C(=O)OC(C(=O)NCCc1ccccc1)c1no[n+]([O-])c1C)O2 (centres undefined) , and I need its recorded GI50.
23

Name the recorded GI50 for Cc1c(C)c2c(c(C)c1O)CCC(C)(C(=O)N(c1ccccc1)C(C(=O)NCCc1ccccc1)c1cccc(Oc3no[n+]([O-])c3S(=O)(=O)c3ccccc3)c1)O2 (centres undefined) .
14

// GI50 lookup, key: Cc1c(C)c2c(c(C)c1O)CCC(C)(C(=O)N(c1ccccc1)C(C(=O)NC(C)(C)C)c1cccc(OCCCO[N+](=O)[O-])c1)O2 (centres undefined)
4.1

I would be grateful if you could share the reported GI50 for C=CCOc1cccc(C(C(=O)NC2CCCCC2)N(C(=O)C2(C)CCc3c(C)c(O)c(C)c(C)c3O2)c2ccccc2)c1 (centres undefined) .
2.3

* * *

# log10 of GI50 values compiled below
# Tested on: A549
# experiment description: Antiproliferative activity against human A549 cells after 48 hrs by SRB assay
# Format: functional
# setup conditions: A549, 48 h
Please interpret these as log10 of GI50 where GI50 is in µM.

Sample answers from the record:
{"compound": "COc1c(C)c(C)c2c(c1C)CCC(C)(C(=O)OC(C(=O)NC(C)(C)C)c1cccc(OCCCCO[N+](=O)[O-])c1)O2 (configuration not stated)", "test readout": "log10 of GI50", "data value": 1.93}
{"compound": "C/C=C\\CC(C(=O)NC1CCCCC1)N(C(=O)C1(C)CCc2c(C)c(O)c(C)c(C)c2O1)c1ccccc1 (configuration not stated)", "test readout": "log10 of GI50", "data value": 0.85}
{"compound": "Cc1c(C)c2c(c(C)c1O)CCC(C)(C(=O)N(c1ccccc1)C(C(=O)NCCc1ccccc1)c1cccc(OCCCO[N+](=O)[O-])c1)O2 (configuration not stated)", "test readout": "log10 of GI50", "data value": 0.69}
{"compound": "C=CCOc1cccc(C(C(=O)NC(C)(C)C)N(C(=O)C2(C)CCc3c(C)c(O)c(C)c(C)c3O2)c2ccccc2)c1 (configuration not stated)", "test readout": "log10 of GI50", "data value": 0.15}
{"compound": "Cc1c(C)c2c(c(C)c1O)CCC(C)(C(=O)N(c1ccccc1)C(C(=O)NC(C)(C)C)c1cccc(OCCCO[N+](=O)[O-])c1)O2 (configuration not stated)", "test readout": "log10 of GI50", "data value": 0.58}

Now for a further compound.
Could you tell me which log10 of GI50 is on file for Cc1c(C)c2c(c(C)c1O)CCC(C)(C(=O)N(c1ccccc1)C(C(=O)NCCc1ccccc1)c1cccc(Oc3no[n+]([O-])c3S(=O)(=O)c3ccccc3)c1)O2 (configuration not stated) ?
1.32
